// provenance: the RNAGym collection of RNA variant scans (doi:10.1093/nar/gkz1192)

Consider the following variants; for each one, report its self-cleavage.
B1: CPEB3 Ribozyme (parent)
chain: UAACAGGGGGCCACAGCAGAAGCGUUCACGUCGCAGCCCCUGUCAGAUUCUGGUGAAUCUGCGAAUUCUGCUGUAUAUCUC

- Variants of: B1
- PROTOCOL: self-cleavage, relative activity (ratio to wild type); higher = more cleavage; in vitro, sequencing
Please reply with the number alone, leaving off any unit.

The variant identified as UAACAGGGGGCCACAGCCGAAGCGUCCACGUCGCAGCCCCUGUCAGAUUCUGGUGAAUCUGCGAAUUCUGCUGUAUAUCUC registered its self-cleavage at 0.44

Lookup result for UAACAGGGGGCCAGAGCAGAGGCGUUCACGUCGCAGCCCCUGUCAGAUUCUGGUGAAUCUGCGAAUUCUGCUGUAUAUCUC ; measured self-cleavage: 0.45

Quick note, self-cleavage for UAACAGGGGGCCACAGCAGAGGCGUUCCCGUCGCAGCCCCUGUCAGAUUCUGGUGAAUCUGCGAAUUCUGCUGUAUAUCUC landed at 0.3

The reported self-cleavage of the variant UAACUGGGGGCCACAGCAGAAGCGUUCACCUCGCAGCCCCUGUCAGAUUCUGGUGAAUCUGCGAAUUCUGCUGUAUAUCUC was 0.4

Entry UAACAGGGGGCCACAGCAGAAGCGUUCGCGUCGCAGCCCCUGUCAGAUUCUGGUGAAUCUGCGAAUUCUGCUGGAUAUCUC , self-cleavage reported as 1.08

The variant identified as UAACAGGGGGCCACAGCAGAAGCGUUCACGAUGCAGCCCCUGUCAGAUUCUGGUGAAUCUGCGAAUUCUGCUGUAUAUCUC registered its self-cleavage at 0.13

Item: UAACAGGGGGCCACAGCAGAAGCCUUCACGUCGCAGCCCCUGUCAGAUUCCGGUGAAUCUGCGAAUUCUGCUGUAUAUCUC | self-cleavage: 0.32

The variant UAACAGGGGGCCACAGCAGAAGCGUUCACGUCGCAGCCCCUGUCAGGUUCUGGUAAAUCUGCGAAUUCUGCUGUAUAUCUC showed self-cleavage equal to 0.75

Entry under test: UAACAGGGGGCCACAGCGGAAGAGUUCACGUCGCAGCCCCUGUCAGAUUCUGGUGAAUCUGCGAAUUCUGCUGUAUAUCUC . Its self-cleavage was 0.26

Briefly, self-cleavage measured for UAACAGGGGGCCACAGCAGAAGCGCUCACGUCGCAGCCCCUGUCAGAUCCUGGUGAAUCUGCGAAUUCUGCUGUAUAUCUC : 0.21

Reported self-cleavage for UAACAGGGGGCCACAGCAGAAGCGUUCACGUCGCAGCCCCUGUCAGAUUCUGGUGGAUCUGCGAACUCUGCUGUAUAUCUC was 0.29

Entry UAACAGGGGGCCAAAGCAAAAGCGUUCACGUCGCAGCCCCUGUCAGAUUCUGGUGAAUCUGCGAAUUCUGCUGUAUAUCUC , self-cleavage reported as 0.29

Please fill in: self-cleavage reported for UAACAGGGGGCCACAGCAGAAGCGUUCACGUCGCGGCCCCUGUCAGUUUCUGGUGAAUCUGCGAAUUCUGCUGUAUAUCUC = 1.16

Looking up CAACAGGGGGCCACAGCAGAAGCGUUCACGUCGCAGCCCCUGUCAGAUUCUGGUGAAUCUGCGAAUUCUGCCGUAUAUCUC , I found its self-cleavage recorded as 0.82

Please fill in: self-cleavage reported for UAACGGAGGGCCACAGCAGAAGCGUUCACGUCGCAGCCCCUGUCAGAUUCUGGUGAAUCUGCGAAUUCUGCUGUAUAUCUC = 0.6

Record UAACAGGGGGCCACAGCAGGAGCGUUCACGUCGCAGCCCCUGUCAGAUUCAGGUGAAUCUGCGAAUUCUGCUGUAUAUCUC , field self-cleavage: 0.8

// self-cleavage value for UAACAGGGGGCAACAGCAGAAGCGUUCACGUCGCAGCCCCUGUCAGAUUCUGGUCAAUCUGCGAAUUCUGCUGUAUAUCUC : 0.78

The variant identified as UAACAGGGGGCCACAGCAGAAGCGUUCACGUCGCAGCCCCUGUCAGAUUCUGGUGAUUCUGCGAGUUCUGCUGUAUAUCUC registered its self-cleavage at 0.22

Just so you know, measured self-cleavage for UAACAGGGGGCCACAGCAGAAGCGUUCACGUCGCAGCCCCUGUCAGAUUCUGGCGAAUCUGCGAAUUCUGAUGUAUAUCUC came out at 0.39

Entry UAACAGGGGGCCACAGCAGAAGCGUUCACGUCGCAGCCCCUGUCAGAUUCUGGUGAAUAUGCGAAUUCUGCUGUAUACCUC — recorded self-cleavage = 0.38

Form: variant = UAACAGGGGGCCACAGCAGAAGCGUUCACGUCGCAGCACCUGUCAGAAUCUGGUGAAUCUGCGAAUUCUGCUGUAUAUCUC ; self-cleavage = 0.36

// CAACAGGUGGCCACAGCAGAAGCGUUCACGUCGCAGCCCCUGUCAGAUUCUGGUGAAUCUGCGAAUUCUGCUGUAUAUCUC : self-cleavage value = 0.39

The reported self-cleavage of the variant UAACAGGGGGCCACAGCAGAAGCGCUCACGUCGCAGCCCCGGUCAGAUUCUGGUGAAUCUGCGAAUUCUGCUGUAUAUCUC was 0.27

Per the records, this variant ( UAACAGGGGGCCACAGCAGAAGCGUUCACGUCGCAGCCCCUGUAAGAUUCAGGUGAAUCUGCGAAUUCUGCUGUAUAUCUC ) has self-cleavage equal to 0.11

Lab book: self-cleavage of UUACAGGGGGCCACAGCAGAAGCGUUCACGUCGCAGCCCCUGUCAGAUUCUGGUGAAUCUGCGAAUUCUGCUGUAUGUCUC noted as 1.04

Looking up UAACAGGGGGCCACAGCAGAAGCGUUCACGUCGCAGCCCCUGUCAGAUUCUGGUGAAUCUACGAAUUCUGCUGUACAUCUC , I found its self-cleavage recorded as 0.88

Entry UAACGGGGGGCCACAGCAGAAGCGUUCACGUCGCUGCCCCUGUCAGAUUCUGGUGAAUCUGCGAAUUCUGCUGUAUAUCUC ; self-cleavage = 0.36

For this variant ( UAGCAGGGGGCCACAGCAGAAGCGUUCACGUCGCAGCCCGUGUCAGAUUCUGGUGAAUCUGCGAAUUCUGCUGUAUAUCUC ), measured self-cleavage is 0.5

self-cleavage reported for this variant UAACAGGGGGCCACAGCAGAAGCGUUCACGUCGUAGCCCCUGUAAGAUUCUGGUGAAUCUGCGAAUUCUGCUGUAUAUCUC : 0.38

self-cleavage for UAACGGGGGGCCACAGCAGAAGCGUUCACGUCGCAGCCCCUGUCAGAUUCUGGUGAAUCUGCGAAUUCUGCUGUAAAUCUC is 0.85

GET /value?item= UACCAGGGGGCCACAGCUGAAGCGUUCACGUCGCAGCCCCUGUCAGAUUCUGGUGAAUCUGCGAAUUCUGCUGUAUAUCUC &field=self-cleavage returns 0.73

Lab book: self-cleavage of UAACAGGGGGCCACAGCAGAAGCGUUCGCGUCGCAGCCCCUGUCAGAUUCUGGUGAAUCUGCGAUUUCUGCUGUAUAUCUC noted as 0.15

Record summary for UAACAGGGGGCCACAGCUGAAGCGUUCACGUCGCAGCCCCUGUCAGAUUCUGGUGAAUCUGAGAAUUCUGCUGUAUAUCUC : reported self-cleavage = 0.28

Lab note: measured self-cleavage of GAACAGGGGGCCACAGCAGAAGCGUUCACGUCGCAGCCCCUGUCAGGUUCUGGUGAAUCUGCGAAUUCUGCUGUAUAUCUC was 1.16

Form: variant = UAACAGGGGGCCACAGCAGAAGCGUUCACGUCGCAGCCCCUGUCAGAUUCUGGUGAAUCUACGAAUUCAGCUGUAUAUCUC ; self-cleavage = 0.4

Data point: UAACAGGGGGGCACAGCAGGAGCGUUCACGUCGCAGCCCCUGUCAGAUUCUGGUGAAUCUGCGAAUUCUGCUGUAUAUCUC ; self-cleavage = 0.56

self-cleavage recorded for this variant, UAACAGGGGGCCACAGCAGAAGCGUUCACGUCGCAGCCCCAGUCAGAUUCUGGUGUAUCUGCGAAUUCUGCUGUAUAUCUC , is 0.29

For reference, reported self-cleavage for UAACAGGGGGCCACAGCAGAAGCGUUCACGUCCCGGCCCCUGUCAGAUUCUGGUGAAUCUGCGAAUUCUGCUGUAUAUCUC stands at 0.22

Query UAACAGGGGGCCACAGCAGAAGCGUUCACGUCGGAGCCCCUGUCAGAUUCUGGUGAAUCUGCGAAUUCUGCUGUGUAUCUC yields self-cleavage of 0.15

# self-cleavage of UAACAGGGGGCCACAGCAGAAGCGUUCACUUCGCAGCCCCUGUCAGAUUCUGGUGAAUCCGCGAAUUCUGCUGUAUAUCUC = 0.15

Briefly, self-cleavage measured for UAACAGGGGGCCACAGCAGAAGCGUCCACGUCGCAGCCCCUGUCAGAUUCUGGCGAAUCUGCGAAUUCUGCUGUAUAUCUC : 0.44

self-cleavage for UAACAGGGGGCCACAGCAGAAGCGUUCCCGUCGCAGCCCCUGUCAGAUUCUGGUGAAUCUGCGAAUUCUGCGGUAUAUCUC is 0.4

Lab book: self-cleavage of UAACAGGGGGCCACAGCAGAAGCGUUCACGUCGCAACCCCUGUCUGAUUCUGGUGAAUCUGCGAAUUCUGCUGUAUAUCUC noted as 0.27

Noted for UAACAGGGGGCCACAGCAGAAGCGUUCGCGUCGAAGCCCCUGUCAGAUUCUGGUGAAUCUGCGAAUUCUGCUGUAUAUCUC : its self-cleavage reads 0.32

Recorded self-cleavage (variant UAACAGGGGGCAACAGCAGAAGCGCUCACGUCGCAGCCCCUGUCAGAUUCUGGUGAAUCUGCGAAUUCUGCUGUAUAUCUC ): 0.42
